- Tested on: Diabrotica virgifera virgifera Leconte, 3rd instar western corn rootworm
- protocol_description: Evaluation against 3rd instar western corn rootworm, treated talc/soil jar test, mortality after 5 days
- Type: in vivo
- condition_info: 50 ppm; mortality rating 0-9 after 5 days in soil
The compounds listed here are annotated with their Western Corn Rootworm (50 ppm) rating.
Answer using only a numeral; do not append any unit.

CCCCCCOC(C(C)C)C(C)(C)C(=O)Nc1ccc(C(F)(F)F)cc1 (stereo not shown) [Compound 27]; 9.0
COC(C(C)C)C(C)(C)C(=O)Nc1ccc(C(F)(F)F)cc1 (stereo not shown) [Compound 16]; 9.0
CC(C)C(=O)C(C)(Cl)C(=O)Nc1ccc(C(F)(F)F)cc1 (stereo not shown) [Compound 31]; 4.0

**Query** Fill in the blank: the reported Western Corn Rootworm (50 ppm) rating of CC(C)C(OC=O)C(C)(C)C(=O)Nc1ccc(C(F)(F)F)cc1 (stereo not shown) [Compound 33] is ____.
**Result** 9.0

---

The molecules listed here are annotated with their Western Corn Rootworm (10 ppm) rating.
- Test system: Diabrotica virgifera virgifera Leconte, 3rd instar western corn rootworm
- protocol_description: Evaluation against 3rd instar western corn rootworm, treated talc/soil jar test, mortality after 5 days
- Format: in vivo
- condition_info: 10 ppm; mortality rating 0-9 after 5 days in soil
Answer using only a numeral; do not append any unit.

Example molecules with recorded Western Corn Rootworm (10 ppm) rating:
CCOC(C(C)C)C(C)(C)C(=O)Nc1ccc(C(F)(F)F)cc1 (centres unmarked); 9.0
COC(C(C)C)C(C)(C)C(=O)Nc1ccc(Cl)cc1 (centres unmarked); 5.0
COC(C(C)C)C(C)(C)C(=O)Nc1ccc(C(F)(F)F)cc1 (centres unmarked); 9.0
CC(C)CC(C)C(=O)Nc1ccc(C(F)(F)F)c(OC(F)F)c1 (centres unmarked); 4.0

**Query** Fill in the blank: the reported Western Corn Rootworm (10 ppm) rating of CC(C)(C)OC(C)(C)C(=O)Nc1ccc(C(F)(F)F)cc1 is ____.
**Result** 9.0

---

- System: Diabrotica virgifera virgifera Leconte, 3rd instar western corn rootworm
- protocol_description: Evaluation against 3rd instar western corn rootworm, treated talc/soil jar test, mortality after 5 days
- Format: in vivo
- condition_info: 10 ppm; mortality rating 0-9 after 5 days in soil
assay_metric: Western Corn Rootworm (10 ppm) rating

Example compounds with recorded Western Corn Rootworm (10 ppm) rating:
CC(C)C(=O)C(C)C(=O)Nc1ccc(C(F)(F)F)cc1 (stereo not shown); 0.0
CC(C)C(=O)C(C)(C)C(=O)N(C)c1ccc(C(F)(F)F)cc1; 9.0
CC(C)C(=O)C1(C(=O)Nc2ccc(C(F)(F)F)cc2)CC1; 0.0

**Query** Fill in the blank: the reported Western Corn Rootworm (10 ppm) rating of CCOCOC(C(C)C)C(C)(C)C(=O)Nc1ccc(C(F)(F)F)cc1 (stereo not shown) is ____.
**Result** 9.0

---

- System: Diabrotica undecimrunctata howardi, 3rd instar southern corn rootworm
- protocol_description: Evaluation against 3rd instar southern corn rootworm, treated talc/soil jar test, mortality after 5 days
- Type: in vivo, Diabrotica undecimpunctata howardi
- condition_info: 10 ppm; mortality rating 0-9 after 5 days in soil
The compounds listed here are annotated with their Southern Corn Rootworm (10 ppm) rating.
Answer using only a numeral; do not append any unit.

Example compounds with recorded Southern Corn Rootworm (10 ppm) rating:
CC(=O)OC(C(C)C)C(C)(C)C(=O)Nc1ccc(Cl)cc1 (stereo not drawn) [Compound 14]; 9.0
CC(C)C(=O)C(C)(C)C(=O)Nc1ccc(Cl)cc1 [Compound 37]; 9.0
CC(C)[S+]([O-])C(C)(C)C(=O)Nc1ccc(C(F)(F)F)cc1 (stereo not drawn) [Compound 12]; 9.0
CC(C)S(=O)(=O)C(C)(C)C(=O)Nc1ccc(C(F)(F)F)cc1 [Compound 13]; 9.0
CC(C)C(O)C(C)(C)C(=O)Nc1ccc(Cl)cc1 (stereo not drawn) [Compound 3]; 4.0
CC(=O)OC(C(C)C)C(C)(C)C(=O)Nc1ccc(C(F)(F)F)cc1 (stereo not drawn) [Compound 9]; 8.3
CC(C)C(O)C(C)(C)C(=O)Nc1ccc(C(F)(F)F)cc1 (stereo not drawn) [Compound 4]; 0.0
CC(C)C(=O)C(C)(C)C(=O)N(C(=O)c1ccc(Cl)cc1)c1ccc(C(F)(F)F)cc1 [Compound 7]; 9.0

Shifting focus to the compound that follows.
**Query** Fill in the blank: the reported Southern Corn Rootworm (10 ppm) rating of CC(C)C(=O)C(C)(C)C(=O)Nc1ccc(C(F)(F)F)cc1 [Compound 1] is ____.
**Result** 9.0
